ASSAY_TARGET: human GRP receptor (human, UniProt P30550 1-384)
Sequence (P30550 whole entry): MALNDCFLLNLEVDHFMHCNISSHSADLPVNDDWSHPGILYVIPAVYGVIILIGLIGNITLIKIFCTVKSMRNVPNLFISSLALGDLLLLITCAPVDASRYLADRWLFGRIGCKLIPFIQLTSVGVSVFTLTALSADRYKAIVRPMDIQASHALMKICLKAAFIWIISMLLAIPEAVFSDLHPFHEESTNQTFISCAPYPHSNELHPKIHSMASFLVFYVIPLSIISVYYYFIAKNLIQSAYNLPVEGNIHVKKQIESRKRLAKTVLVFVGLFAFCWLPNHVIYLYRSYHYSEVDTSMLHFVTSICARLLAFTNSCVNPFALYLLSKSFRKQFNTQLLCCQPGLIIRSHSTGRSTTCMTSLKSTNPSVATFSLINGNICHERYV
EXPERIMENTAL_PROTOCOL: cell-based or functional assay
Starred links: 1 amine or outer side, 2 acyl side, 3 side chain; linkers in the order of their positions; H or OH if unused. Non-standard residues stand in square brackets, D forms with d. *: point of attachment. d(γGlu) = O=C(O)[C@@H](CCC(=O)[*:2])N[*:1]; C18 diacid = O=C(O)CCCCCCCCCCCCCCCCC(=O)*; Nle = CCCC[C@H](N)C(=O)O; AEEA = NCCOCCOCC(=O)O
RESULT_TYPE: hIP1 GRPR EC50 (nM)
Your answer should be a plain number; it is taken to be in nM.

Endpoint output: hIP1 GRPR EC50 of {C18 diacid}-[d(γGlu)][AEEA][AEEA]GKHWAV[dA]HL[Nle]-NH2 (SMILES CCCC[C@H](NC(=O)[C@H](CC(C)C)NC(=O)[C@H](Cc1c[nH]cn1)NC(=O)[C@@H](C)NC(=O)[C@@H](NC(=O)[C@H](C)NC(=O)[C@H](Cc1c[nH]c2ccccc12)NC(=O)[C@H](Cc1c[nH]cn1)NC(=O)[C@H](CCCCN)NC(=O)CNC(=O)COCCOCCNC(=O)COCCOCCNC(=O)CC[C@@H](NC(=O)CCCCCCCCCCCCCCCCC(=O)O)C(=O)O)C(C)C)C(N)=O) [Peptide 60] . Value?
7.27
